- PROTOCOL_TEXT: RP, Merck Supelco Ascentis Express C18, 100 × 2.1 mm, 2 µm, 40 °C, 0.2 mL/min, estimated dead time 1.1 min; A: water + 0.1% formic acid, pH 3; B: acetonitrile + 0.1% formic acid, pH 3; gradient (min/%B) 0/5 2/5 17/99.9 20/99.9
- EXPERIMENTAL_CONTEXT: stereoisomer not certain
Could you label it y if measured LC retention time is 5 min or higher, and n otherwise?

For orientation, consider the following solved cases.
* CC(=O)NC(C)C(=O)O (stereo unspecified) | n
* O=C(O)c1cc(=O)c2ccccc2[nH]1 [KYNURENATE] | n
* CCCCCCCCCCCC(=O)O [LAURATE] | y
* Cn1c(=O)[nH]c2ncn(C)c2c1=O | n
* O=c1[nH]c(=O)c2ncn(C3OC(CO)C(O)C3O)c2[nH]1 (stereo unspecified) | n

Is reported LC retention time greater than or equal to 5 min here: CC(CCC(=O)O)C1CCC2C3CCC4CC(O)CCC4(C)C3CCC12C (stereo unspecified) [LITHOCHOLATE]
y

Exam item: decide whether the reported LC retention time for Nc1nc2c(ncn2C2OC(CO)C(O)C2O)c(=O)[nH]1 (stereo unspecified) is at least 5 min.
n

* * *

- PROTOCOL_TEXT: RP, Merck Supelco Ascentis Express C18, 100 × 2.1 mm, 2 µm, 39 °C, 0.3 mL/min, estimated dead time 0.73 min; A: water + 0.1% formic acid, pH 3; B: acetonitrile + 0.1% formic acid, pH 3; gradient (min/%B) 0/5 2/5 17/99.9 20/99.9
- EXPERIMENTAL_CONTEXT: stereoisomer not certain
Recorded LC retention time determines the group label, using bottom bin: < 4 min; middle bin: ≥ 4 min and < 5 min; top bin: ≥ 5 min

Worked cases, answers included:
* CSCCC(O)C(=O)O (stereo unspecified) [2-HYDROXY-4-(METHYLTHIO)BUTANOATE] | bottom bin
* O=C(O)C=Cc1ccc(O)cc1 [4-COUMARATE] | top bin
* O=C(O)c1ccc(O)c(O)c1 [3,4-DIHYDROXYBENZOATE] | bottom bin
* O=C(O)CCCC(=O)O [GLUTARATE] | bottom bin
* CCCCCCCCCCCCCCCC(O)C(N)CO (stereo unspecified) | top bin
* O=C(O)c1cc(=O)c2ccccc2[nH]1 [KYNURENATE] | bottom bin
* O=C(O)Cc1c[nH]c2ccc(O)cc12 [5-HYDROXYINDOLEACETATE] | bottom bin
* NC(=O)CCCCC1CCSS1 (stereo unspecified) [LIPOAMIDE] | top bin
* CC(=O)NC(Cc1c[nH]c2ccccc12)C(=O)O (stereo unspecified) | top bin
* Cc1cc2nc[nH]c2cc1C | middle bin

Please examine the following record next.
Would you mind sorting O=C(O)c1ccccc1[O-] [SALICYLATE] into the appropriate category?
middle bin

* * *

- PROTOCOL_TEXT: RP, Merck Supelco Ascentis Express C18, 100 × 2.1 mm, 2 µm, 40 °C, 0.2 mL/min, estimated dead time 1.1 min; A: water + 0.1% formic acid, pH 3; B: acetonitrile + 0.1% formic acid, pH 3; gradient (min/%B) 0/5 2/5 17/99.9 20/99.9
- EXPERIMENTAL_CONTEXT: stereoisomer not certain
READOUT: LC retention time (min)
Report only the number, with the unit min understood.

Recorded results for 5 molecules are shown here.
* COC(=O)c1ccc(O)c(OC)c1 [METHYL VANILLATE] | 5.99
* CC12CCC(=O)C=C1CCC1C2C(=O)CC2(C)C1CCC2(O)C(=O)CO (stereo unspecified) [CORTISONE] | 8.09
* Nc1ccccc1C(=O)O [ANTHRANILATE] | 5.87
* O=C(O)c1cc(=O)c2cccc(O)c2[nH]1 [XANTHURENATE] | 4.17
* CCCCCCC(=O)O [HEPTANOATE] | 6.69

Next item in the queue.
Please list LC retention time recorded for the molecule CC(=O)NCCc1c[nH]c2ccc(O)cc12 [N-ACETYLSEROTONIN]
4.96

* * *

- PROTOCOL_TEXT: RP, Merck Supelco Ascentis Express C18, 100 × 2.1 mm, 2 µm, 39 °C, 0.3 mL/min, estimated dead time 0.73 min; A: water + 0.1% formic acid, pH 3; B: acetonitrile + 0.1% formic acid, pH 3; gradient (min/%B) 0/5 2/5 17/99.9 20/99.9
- EXPERIMENTAL_CONTEXT: stereoisomer not certain
READOUT: LC retention time (min)
I only need the number, in min, no unit after it.

Some entries whose results are on file:
- CC(=O)c1ccc(O)cc1O [2',4'-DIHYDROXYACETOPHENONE]: 5.94
- CC12CCC(=O)C=C1CCC1C2C(=O)CC2(C)C1CCC2(O)C(=O)CO (stereo unspecified): 7.21
- Cn1c(=O)c2[nH]cnc2n(C)c1=O: 2.81
- Nc1ncnc2c1ncn2C1CC(O)C(CO)O1 (stereo unspecified): 0.883

From here, focus on the item given below.
Annotate the molecule O=C(O)c1cccnc1C(=O)O [QUINOLINATE] with its measured LC retention time.
0.937

* * *

log10 of LC retention time by entry:
- PROTOCOL_TEXT: RP, Merck Supelco Ascentis Express C18, 100 × 2.1 mm, 2 µm, 40 °C, 0.25 mL/min, estimated dead time 0.88 min; A: water + 0.1% formic acid, pH 3; B: acetonitrile + 0.1% formic acid, pH 3; gradient (min/%B) 0/5 2/5 17/99.9 20/99.9
- EXPERIMENTAL_CONTEXT: stereoisomer not certain
Kindly note that the scale is log10 and the underlying LC retention time is in min.

Check out these entries, answers already filled in.
* CC(C)CCCC(C)C1CCC2C3=CC=C4CC(O)CCC4(C)C3CCC21C (stereo unspecified) [7-DEHYDROCHOLESTEROL] | 1.03
* CC(CCC(=O)O)C1CCC2C3C(O)CC4CC(O)CCC4(C)C3CC(O)C12C (stereo unspecified) [CHOLATE] | 0.99

For CC(=O)N1CCCC1C(=O)O (stereo unspecified) , write its log10 of LC retention time.
0.35

Given the molecule NC(Cc1c[nH]c2ccc(O)cc12)C(=O)O (stereo unspecified) [5-HYDROXYTRYPTOPHAN] , write its reported log10 of LC retention time.
0.13

State its log10 of LC retention time: O=C(O)c1ccccc1[O-] [SALICYLATE]
0.67

Please list log10 of LC retention time recorded for the molecule `Cc1ccc(O)c(O)c1`
0.29

Using the record for CC(CCC(=O)NCC(=O)O)C1CCC2C3C(O)CC4CC(O)CCC4(C)C3CCC12C (stereo unspecified) [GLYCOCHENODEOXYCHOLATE] , state its measured log10 of LC retention time.
1.00

Hello, please tell me recorded log10 of LC retention time for this one: CCCCCCCCCCCCCCCC(=O)O [PALMITATE]
1.23

Write down log10 of LC retention time measured for item CC12CCC3c4ccc(O)cc4CCC3C1CCC2O (stereo unspecified)
0.98

Given the molecule CCCCCCCCC=CCCCCCCCCCCCCCC(=O)[O-] [NERVONATE] , write its reported log10 of LC retention time.
1.27

* * *

- PROTOCOL_TEXT: RP, Merck Supelco Ascentis Express C18, 100 × 2.1 mm, 2 µm, 40 °C, 0.2 mL/min, estimated dead time 1.1 min; A: water + 0.1% formic acid, pH 3; B: acetonitrile + 0.1% formic acid, pH 3; gradient (min/%B) 0/5 2/5 17/99.9 20/99.9
- EXPERIMENTAL_CONTEXT: stereoisomer not certain
READOUT: LC retention time

- CCCCCCSCC(NC(=O)CCC(N)C(=O)O)C(=O)NCC(=O)O (stereo unspecified): 7.14 min
- O=C(O)CCCCC1SCC2NC(=O)NC21 (stereo unspecified): 5.44 min
- Cc1cc2nc[nH]c2cc1C: 5.17 min
- O=C(O)Cc1c[nH]c2ccccc12 [INDOLE-3-ACETATE]: 7.21 min
- Cc1cn(C2CC(O)C(CO)O2)c(=O)[nH]c1=O (stereo unspecified): 2.09 min

Find the measured LC retention time of `CNCCc1c[nH]c2ccccc12` and report it.
4.88 min

Please look at this compound and report its LC retention time: O=C(O)c1ccnc2ccccc12 [4-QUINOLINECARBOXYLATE]
1.6 min

Answer with the recorded LC retention time of CCCCCCC=CCCCCCCCC(=O)[O-] [PALMITOLEATE] only.
16.7 min

Note LC retention time for the compound shown: CC(=CC(=O)O)C(=O)O [2-METHYLMALEATE]
2.46 min

Report measured LC retention time; entry is O=C(O)Cc1c[nH]c2ccc(O)cc12 [5-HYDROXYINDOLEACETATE]
4.79 min

Provide measured LC retention time value, entry: CCCCCCCCCCCC=CCCCCC(=O)[O-] [PETROSELINATE]
18.1 min

State its LC retention time for this compound: O=C(O)c1cccc(O)c1 [3-HYDROXYBENZOATE]
5.31 min
